# Tested target: IDH1 R132C (Homo sapiens, UniProt O75874, R132C)
# Sequence (O75874 whole entry R132C): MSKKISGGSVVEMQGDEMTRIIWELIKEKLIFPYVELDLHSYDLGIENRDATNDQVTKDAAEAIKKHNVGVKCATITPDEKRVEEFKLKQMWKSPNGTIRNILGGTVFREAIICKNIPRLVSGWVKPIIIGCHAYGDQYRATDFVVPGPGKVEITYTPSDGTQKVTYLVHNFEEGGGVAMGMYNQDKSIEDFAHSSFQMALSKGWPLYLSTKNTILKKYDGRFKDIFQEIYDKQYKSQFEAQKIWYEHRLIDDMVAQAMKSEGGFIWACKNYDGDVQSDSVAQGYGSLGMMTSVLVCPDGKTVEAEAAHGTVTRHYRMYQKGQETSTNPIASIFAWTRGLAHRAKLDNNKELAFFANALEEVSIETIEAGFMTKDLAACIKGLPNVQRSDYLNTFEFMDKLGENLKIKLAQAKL
# Protocol notes: IDH1 R132C enzymatic assay (NADPH depletion coupled to diaphorase/resazurin)
# Assay type: biochemical
# Measurement conditions: IDH1 R132C enzymatic inhibition, IC50 class
IC50 overview

COc1c(C(=O)O)cccc1-n1c2c(cc(-c3nc(-c4ccc(Cl)cc4)cs3)c1=O)C(=O)CC(C)(C)C2 [Compound 174]
5000 to 20000 nM
CCc1cccc(CC)c1-n1c2c(cc(-c3nc(-c4cccnc4)cs3)c1=O)C(=O)CC(C)(C)C2 [Compound 119]
1000 to 5000 nM
CCc1ccc(F)cc1-n1c(C=C(C)C)c(C(=O)N2CCNCC2)cc(-c2nc(-c3ccc(C(F)F)cc3)cs2)c1=O [Compound 379]
< 300 nM
CCc1cccc(CC)c1-n1c(C(C)(C)F)c(C(=O)N2CCNCC2)cc(-c2nc(-c3ccc(Cl)cc3)cs2)c1=O [Compound 664]
300 to 1000 nM
CCc1cccc(CC)c1-n1c(CC(C)C)c(C(=O)N2CCNC(C(=O)O)C2)cc(-c2nc(-c3ccc(Cl)cc3)cs2)c1=O (centres unmarked) [Compound 171]
< 300 nM
CCc1cccc(CC)c1-n1c(CC(C)C)c(C(=O)NC[C@@H](NC(C)=O)C(=O)O)cc(-c2nc(-c3ccc(Cl)cc3)cs2)c1=O [Compound 29]
1000 to 5000 nM
CCc1cccc(CC)c1-n1c2c(cc(-c3nc(-c4ccc(C(F)(F)F)cc4)cs3)c1=O)C(=O)CC(C)(C)C2 [Compound 186]
< 300 nM
COc1ccc(C(=O)O)cc1-n1c2c(cc(-c3nc(-c4ccc(Cl)cc4)cs3)c1=O)C(=O)CC(C)(C)C2 [Compound 27]
5000 to 20000 nM

Return IC50 measured with IDH1 R132C (Homo sapiens, UniProt O75874, R132C) given this compound: CCc1cccc(CC)c1-n1c(C)c(C(=O)N2CCCC2C(=O)O)cc(-c2nc(-c3ccc(Cl)cc3)cs2)c1=O (centres unmarked) [Compound 258] 1000 to 5000 nM

###

pIC50 overview
# Tested target: IDH1 R132C (Homo sapiens, UniProt O75874, R132C)
# Protocol notes: IDH1 R132C enzymatic assay (NADPH depletion coupled to diaphorase/resazurin)
# Assay type: biochemical
# Measurement conditions: IDH1 R132C enzymatic inhibition, IC50 class
pIC50: −log10 of the molar value.

For orientation, consider the following solved cases.
COc1cc(N)ccc1-n1c2c(cc(-c3nc(-c4ccc(Cl)cc4)cs3)c1=O)C(=O)CC(C)(C)C2
5.30 to 6.00
CCc1cccc(CC)c1-n1c(CC(C)C)c(C(=O)N2CCNCC2)cc(-c2ccn(-c3ccc(Cl)cc3)n2)c1=O
> 6.52
CCc1cccc(CC)c1-n1c(C(C)C)c(C(=O)N2CCNCC2)cc(-c2nc(-c3ccc(Cl)cc3)cs2)c1=O
> 6.52

Query (compound): CC1(C)CC(=O)c2cc(-c3nc(-c4ccc(Cl)cc4)cs3)c(=O)n(-c3ccccc3CC(F)(F)F)c2C1 ; field requested: pIC50 6.00 to 6.52

###

# Tested target: IDH1 R132H (Homo sapiens, UniProt O75874, R132H)
# Sequence (O75874 whole entry R132H): as the sequence (O75874 whole entry R132C) above, with C132H counted along it
# Protocol notes: IDH1 R132H enzymatic assay (NADPH depletion coupled to diaphorase/resazurin)
# Assay type: biochemical
# Measurement conditions: enzymatic inhibition, IDH1 R132H
Endpoint name: IC50

CCOc1ccc(-n2ccc(-c3cc(C(=O)N4CCNCC4)c(CC(C)C)n(-c4c(CC)cccc4CC)c3=O)n2)cc1
< 300 nM

// below: IC50 requested for another compound
Query (compound): CCc1ncc(OC)cc1-n1c(C=C(C)C)c(C(=O)N2CCNCC2)cc(-c2nc(-c3ccc(C(F)F)cc3)cs2)c1=O ; field requested: IC50 < 300 nM

###

IC50 overview
# Tested target: IDH1 R132H (Homo sapiens, UniProt O75874, R132H)
# Protocol notes: IDH1 R132H enzymatic assay (NADPH depletion coupled to diaphorase/resazurin)
# Type: biochemical
# Measurement conditions: IDH1 R132H enzymatic inhibition, IC50 class

For orientation, consider the following solved cases.
CC1(C)CC(=O)c2cc(-c3nc(-c4ccc(Cl)cc4)cs3)c(=O)n(-c3cn[nH]c3)c2C1
5 to 20 µM
CCc1cccc(CC)c1-n1c(C=C(C)C)c(C(=O)N2CCNCC2)cc(-c2nc(-c3ccc(C(F)F)cc3)cs2)c1=O
< 0.3 µM
CCc1cccc(CC)c1-n1c(C)c(C(=O)N2CCC(N)C2)cc(-c2nc(-c3ccc(Cl)cc3)cs2)c1=O (stereo not shown)
1 to 5 µM

Query (compound): CCc1cccc(CC)c1-n1c(C=C(C)C)c(C(=O)N2CCNC(=O)C2CC(=O)O)cc(-c2nc(-c3ccc(Cl)cc3)cs2)c1=O (stereo not shown) ; field requested: IC50 < 0.3 µM

###

# Tested target: IDH1 R132C (Homo sapiens, UniProt O75874, R132C)
# Protocol notes: IDH1 R132C enzymatic assay (NADPH depletion coupled to diaphorase/resazurin)
# Assay type: biochemical
# Measurement conditions: IDH1 R132C enzymatic inhibition, IC50 class
pIC50: −log10 of the molar value.
Endpoint name: pIC50

CCc1cccc(CC)c1-n1c(C)c(C(=O)NC(C)C)cc(-c2nc(-c3ccc(Cl)cc3)cs2)c1=O [Compound 311]
5.30 to 6.00

// below: pIC50 requested for another compound
Query (compound): O=C1CCCc2c1cc(-c1nc(-c3ccc(Cl)cc3)cs1)c(=O)n2-c1ccncc1 [Compound 368] ; field requested: pIC50 < 4.70

###

# Tested target: IDH1 R132H (Homo sapiens, UniProt O75874, R132H)
# Protocol notes: IDH1 R132H enzymatic assay (NADPH depletion coupled to diaphorase/resazurin)
# Format: biochemical
# Measurement conditions: enzymatic inhibition, IDH1 R132H
pIC50: −log10 of the molar value.
Endpoint name: pIC50

Query (molecule): COc1ccc(C#N)cc1-n1c(C=C(C)C)c(C(=O)N2CCNCC2)cc(-c2nc(-c3ccc(Cl)cc3)cs2)c1=O ; field requested: pIC50 6.00 to 6.52

Item: CCc1cccc(CC)c1-n1c(C=C(C)C)c(C(=O)N2CCCNC(=O)C2)cc(-c2nc(-c3ccc(Cl)cc3)cs2)c1=O > 6.52

Item: CCOc1ncc(C)cc1-n1c(C=C(C)C)c(C(=O)N2CCNCC2)cc(-c2nc(-c3ccc(C(F)F)cc3)cs2)c1=O > 6.52

###

# Tested target: IDH1 R132C (Homo sapiens, UniProt O75874, R132C)
# Protocol notes: IDH1 R132C enzymatic assay (NADPH depletion coupled to diaphorase/resazurin)
# Type: biochemical
# Measurement conditions: IDH1 R132C enzymatic inhibition, IC50 class
pIC50: −log10 of the molar value.
pIC50 overview

For orientation, consider the following solved cases.
CCc1cccc(CC)c1-n1c2c(cc(-c3nc(-c4cccc(F)c4)cs3)c1=O)C(=O)CC(C)(C)C2 [Compound 209]
5.30 to 6.00
CCc1cccc(CC)c1-n1c(C=C(C)C)c(C(=O)N2CCC3(CCNC3)C2)cc(-c2nc(-c3ccc(Cl)cc3)cs2)c1=O (centres unmarked) [Compound 659]
> 6.52
CCc1cccc(CC)c1-n1c(C(C)C)c(C(=O)N2CCN[C@@H](CO)C2)cc(-c2nc(-c3ccc(Cl)cc3)cs2)c1=O [Compound 229]
> 6.52
CC1(C)CC(=O)c2cc(-c3nc(-c4ccc(Cl)cc4)cs3)c(=O)n(-c3ccccc3OCc3ccccc3)c2C1 [Compound 1]
6.00 to 6.52
CCc1cccc(CC)c1-n1c(C(C)C)c(C(=O)NC[C@@H](C)O)cc(-c2nc(-c3ccc(Cl)cc3)cs2)c1=O [Compound 101]
6.00 to 6.52
COc1ccc(OC)c(-n2c3c(cc(-n4cc(-c5ccccc5)nn4)c2=O)C(=O)CC(C)(C)C3)c1 [Compound 261]
4.70 to 5.30
CCc1cccc(CC)c1-n1c(CC(C)C)c(C(=O)N2[C@H](C)CNC[C@@H]2C)cc(-c2nc(-c3ccc(Cl)cc3)cs2)c1=O [Compound 61]
> 6.52
CCc1cccc(CC)c1-n1c(CC(C)C)c(C(=O)N2CCNCC2)cc(-c2nc(-c3ccc(F)cc3)c(C)s2)c1=O [Compound 181]
> 6.52
CCc1cccc(CC)c1-n1c(CC(C)C)c(C(=O)NC(CC)CO)cc(-c2nc(-c3ccc(Cl)cc3)cs2)c1=O (centres unmarked) [Compound 196]
> 6.52
CCOc1ncc(C)cc1-n1c(C=C(C)C)c(C(=O)N2CCNCC2)cc(-c2nc(-c3ccc(C(F)(F)F)nc3)cs2)c1=O [Compound 639]
6.00 to 6.52

Query (molecule): O=C1CCCc2c1cc(-c1nc(-c3ccc(Cl)cc3)cs1)c(=O)n2-c1ccccc1CO [Compound 634] ; field requested: pIC50 4.70 to 5.30

Item: CCc1cccc(CC)c1-n1c(C)c(C(=O)NC2CCCC(O)C2)cc(-c2nc(-c3ccc(Cl)cc3)cs2)c1=O (centres unmarked) [Compound 18] 5.30 to 6.00

Item: CN(C)c1ccccc1-n1c2c(cc(-c3nc(-c4ccc(Cl)cc4)cs3)c1=O)C(=O)CC(C)(C)C2 [Compound 56] 6.00 to 6.52
